These data points were gathered from the supplement of paper PMC6555819.

- Tested on: RARb:RXRa (NR concentration 270 nM, RXRa partner concentration 90 nM)
- Experiment: PBM binding z-score (relative to random genomic background probes); higher = stronger binding; sequences stand for … in GC…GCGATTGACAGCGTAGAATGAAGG
Quick list: PBM binding z-score per entry.
Readout Type: PBM binding z-score

sequence=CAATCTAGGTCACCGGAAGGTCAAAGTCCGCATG obs_value=5.41
sequence=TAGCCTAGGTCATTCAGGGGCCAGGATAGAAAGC obs_value=3.97
sequence=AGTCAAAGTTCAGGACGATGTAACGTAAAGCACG obs_value=4.17
sequence=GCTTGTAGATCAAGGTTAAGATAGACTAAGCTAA obs_value=0.938
sequence=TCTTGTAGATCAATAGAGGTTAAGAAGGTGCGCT obs_value=0.921
sequence=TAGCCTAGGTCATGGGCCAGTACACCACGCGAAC obs_value=3.92
sequence=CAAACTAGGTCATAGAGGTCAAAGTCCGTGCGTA obs_value=5.12
sequence=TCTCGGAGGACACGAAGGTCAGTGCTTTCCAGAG obs_value=3.29
sequence=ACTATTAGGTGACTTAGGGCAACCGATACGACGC obs_value=1.31
sequence=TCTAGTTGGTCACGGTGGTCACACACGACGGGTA obs_value=1.93
sequence=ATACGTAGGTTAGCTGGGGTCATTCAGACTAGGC obs_value=2.93
sequence=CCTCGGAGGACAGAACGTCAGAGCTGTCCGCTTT obs_value=0.103
sequence=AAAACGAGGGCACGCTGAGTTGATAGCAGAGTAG obs_value=2.65
sequence=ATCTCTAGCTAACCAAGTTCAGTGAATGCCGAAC obs_value=0.746
sequence=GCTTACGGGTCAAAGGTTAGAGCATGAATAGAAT obs_value=4.37
sequence=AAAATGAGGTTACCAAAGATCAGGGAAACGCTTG obs_value=2.31
sequence=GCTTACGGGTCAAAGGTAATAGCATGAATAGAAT obs_value=3.87
sequence=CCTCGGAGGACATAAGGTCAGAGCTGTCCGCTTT obs_value=3.4
sequence=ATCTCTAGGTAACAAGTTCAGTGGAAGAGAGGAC obs_value=1.8
sequence=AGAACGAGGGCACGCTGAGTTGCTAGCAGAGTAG obs_value=2.43
sequence=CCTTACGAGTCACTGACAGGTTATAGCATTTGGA obs_value=0.807
sequence=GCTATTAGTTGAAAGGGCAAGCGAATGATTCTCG obs_value=1.94
sequence=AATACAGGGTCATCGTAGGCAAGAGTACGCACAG obs_value=4.46
sequence=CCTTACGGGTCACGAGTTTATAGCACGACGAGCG obs_value=4.27
sequence=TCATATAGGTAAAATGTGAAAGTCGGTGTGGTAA obs_value=0.176
sequence=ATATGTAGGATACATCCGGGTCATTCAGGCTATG obs_value=1.2
sequence=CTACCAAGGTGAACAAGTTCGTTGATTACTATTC obs_value=1.55
sequence=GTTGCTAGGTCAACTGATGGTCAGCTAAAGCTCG obs_value=4.26
sequence=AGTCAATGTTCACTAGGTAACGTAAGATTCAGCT obs_value=0.143
sequence=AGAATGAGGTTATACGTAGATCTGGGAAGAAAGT obs_value=1.23
sequence=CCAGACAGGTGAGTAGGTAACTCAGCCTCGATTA obs_value=0.279
sequence=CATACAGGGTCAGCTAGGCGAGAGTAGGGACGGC obs_value=4.04
sequence=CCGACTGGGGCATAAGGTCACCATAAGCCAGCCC obs_value=3.84
sequence=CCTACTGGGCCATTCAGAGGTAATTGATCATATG obs_value=0.178
sequence=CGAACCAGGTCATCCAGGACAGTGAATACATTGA obs_value=3.95
sequence=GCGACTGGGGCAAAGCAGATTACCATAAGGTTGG obs_value=0.381
sequence=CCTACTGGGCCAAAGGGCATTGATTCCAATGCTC obs_value=1.59
sequence=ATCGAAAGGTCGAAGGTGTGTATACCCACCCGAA obs_value=3.52
sequence=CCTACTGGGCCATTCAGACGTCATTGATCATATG obs_value=-0.11
sequence=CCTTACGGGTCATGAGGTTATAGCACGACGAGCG obs_value=4.11
sequence=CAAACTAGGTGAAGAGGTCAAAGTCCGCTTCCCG obs_value=4.19
sequence=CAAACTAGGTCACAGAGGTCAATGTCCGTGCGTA obs_value=5.17

====

- Test system: VDR:RXRa (NR concentration 270 nM, RXRa partner concentration 90 nM)
- Experiment: PBM binding z-score (relative to random genomic background probes); higher = stronger binding; sequences stand for … in GC…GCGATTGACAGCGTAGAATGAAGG
Label rule, in plain words: PBM binding z-score of 2 and up is met, under 2 is not met.

sequence=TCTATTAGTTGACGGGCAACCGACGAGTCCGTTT tested_system="VDR:RXRa (NR concentration 270 nM, RXRa partner concentration 90 nM)" cat="not met"
sequence=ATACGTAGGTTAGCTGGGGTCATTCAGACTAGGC tested_system="VDR:RXRa (NR concentration 270 nM, RXRa partner concentration 90 nM)" cat=met
sequence=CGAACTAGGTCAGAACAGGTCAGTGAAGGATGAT tested_system="VDR:RXRa (NR concentration 270 nM, RXRa partner concentration 90 nM)" cat=met
sequence=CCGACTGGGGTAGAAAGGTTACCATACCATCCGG tested_system="VDR:RXRa (NR concentration 270 nM, RXRa partner concentration 90 nM)" cat="not met"
sequence=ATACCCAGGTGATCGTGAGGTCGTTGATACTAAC tested_system="VDR:RXRa (NR concentration 270 nM, RXRa partner concentration 90 nM)" cat=met
sequence=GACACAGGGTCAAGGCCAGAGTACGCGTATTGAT tested_system="VDR:RXRa (NR concentration 270 nM, RXRa partner concentration 90 nM)" cat=met
sequence=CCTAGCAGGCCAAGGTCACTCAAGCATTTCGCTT tested_system="VDR:RXRa (NR concentration 270 nM, RXRa partner concentration 90 nM)" cat=met
sequence=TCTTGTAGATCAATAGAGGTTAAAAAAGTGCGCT tested_system="VDR:RXRa (NR concentration 270 nM, RXRa partner concentration 90 nM)" cat="not met"

====

- System: THRa:RXRa (NR concentration 90 nM, RXRa partner concentration 90 nM)
- Experiment: PBM binding z-score (relative to random genomic background probes); higher = stronger binding; sequences stand for … in GC…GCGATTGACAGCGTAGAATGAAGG
Readout Type: PBM binding z-score

sequence=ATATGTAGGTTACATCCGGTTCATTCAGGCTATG obs_value=2.03
sequence=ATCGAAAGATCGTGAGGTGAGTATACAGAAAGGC obs_value=1.73
sequence=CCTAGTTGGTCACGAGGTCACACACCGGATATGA obs_value=4.43
sequence=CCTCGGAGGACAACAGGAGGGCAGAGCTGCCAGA obs_value=0.794

====

- System: VDR:RXRa (NR concentration 270 nM, RXRa partner concentration 90 nM)
- Experiment: PBM binding z-score (relative to random genomic background probes); higher = stronger binding; sequences stand for … in GC…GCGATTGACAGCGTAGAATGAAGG
Readout Type: PBM binding z-score

sequence=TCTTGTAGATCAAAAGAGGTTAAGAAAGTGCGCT obs_value=1.72
sequence=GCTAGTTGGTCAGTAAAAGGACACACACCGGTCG obs_value=-0.213
sequence=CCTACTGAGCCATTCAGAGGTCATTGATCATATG obs_value=3.96
sequence=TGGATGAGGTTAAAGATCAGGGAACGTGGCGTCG obs_value=2.32
sequence=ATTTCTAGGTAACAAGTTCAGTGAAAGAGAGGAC obs_value=2.56
sequence=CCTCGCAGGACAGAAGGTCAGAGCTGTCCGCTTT obs_value=0.93
sequence=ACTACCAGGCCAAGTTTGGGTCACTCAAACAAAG obs_value=1.08
